# Assayed target: Beta Secretase enzyme (BACE1) (Homo sapiens)
# Method description: In vitro enzymatic BACE FRET assay
# Format: biochemical
# Test context: average IC50; read-out: BACE1 FRET assay IC50
Measurement kind: log10 of IC50 (log10 of the value in nM)
Short version: log10 scale, IC50, nM.

The recorded log10 of IC50 for entry C[C@]1(F)C(N)=N[C@](C)(c2cc(Nc3ncc(F)c4cc(Cl)cnc34)ccc2F)CS1(=O)=O [Example 178] equals -0.42

The recorded log10 of IC50 for entry CC1[C@@](C)(c2cc(Br)ccc2F)N=C(N)[C@](C)(F)S1(=O)=O (some centres unmarked) [Example 459] equals 3.36

The recorded log10 of IC50 for entry C[C@]1(c2cc(NC(=O)c3ccc(Cl)cn3)ccc2F)N=C(N)C2(CC2)S(=O)(=O)[C@@H]1F [Example 200] equals 0.11

The recorded log10 of IC50 for entry C[C@@]1(c2cc(Nc3nccc4cc(Cl)cnc34)ccc2F)CS(=O)(=O)C2(CCOC2)C(N)=N1 (mixture of isomers) [Example 182] equals 0.34

The recorded log10 of IC50 for entry COc1ccc(C(=O)Nc2ccc(F)c([C@]3(CF)CS(=O)(=O)C(C)(C)C(N)=N3)c2)nc1 [Example 457] equals -0.19

###

# Assayed target: Cathepsin D (Cat D) (Homo sapiens)
# Construct: Recombinant Cat D was expressed in CHO cells; made in house; host or cells: CHO cells
# Method description: In vitro enzymatic Cathepsin D (Cat D) FRET assay
# Format: biochemical
# Test context: read-out: CatD IC50
Measurement kind: IC50 (µM)
Record the value in µM, omitting the unit from your answer.

COc1cnc2c(Nc3ccc(F)c([C@@]4(C)N=C(N)C(C)(C)S(=O)(=O)C45CC5)c3)nccc2n1 = 113

The recorded IC50 for entry `Cc1c(CNc2cc([C@]3(C)CS(=O)(=O)C(C)(C)C(N)=N3)c(F)cn2)nc2ccc(Cl)cn12` equals 102

The recorded IC50 for entry `CC1(C)C(N)=N[C@](C)(c2cc(NC(=O)c3ncc(C(F)F)cc3Cl)cnc2F)CS1(=O)=O` equals 490

###

# Assayed target: Beta Secretase enzyme (BACE1) (Homo sapiens, UniProt P56817)
# Sequence (P56817 46-501): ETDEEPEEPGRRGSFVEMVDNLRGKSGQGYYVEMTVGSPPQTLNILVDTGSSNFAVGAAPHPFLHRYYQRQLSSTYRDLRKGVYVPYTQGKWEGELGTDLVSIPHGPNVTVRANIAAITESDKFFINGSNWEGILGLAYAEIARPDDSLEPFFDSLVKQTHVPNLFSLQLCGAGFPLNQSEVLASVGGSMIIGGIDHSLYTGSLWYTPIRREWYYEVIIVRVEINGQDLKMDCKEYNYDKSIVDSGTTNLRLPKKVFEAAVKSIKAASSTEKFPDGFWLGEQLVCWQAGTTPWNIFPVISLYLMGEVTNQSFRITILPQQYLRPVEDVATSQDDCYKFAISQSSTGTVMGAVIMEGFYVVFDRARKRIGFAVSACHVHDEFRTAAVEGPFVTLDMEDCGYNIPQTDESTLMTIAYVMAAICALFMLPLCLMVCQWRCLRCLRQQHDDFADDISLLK
# Method description: In vitro enzymatic BACE FRET assay
# Type: biochemical
# Test context: average IC50, enzyme assay; read-out: BACE1 FRET assay IC50
Each entry below carries its recorded pIC50.
Just the number, please; pIC50 means minus log10 of the concentration in mol/L.

Illustrative cases are given below, each with its answer.
Cc1cc(C(F)(F)F)cc(Oc2ccc(F)c([C@]3(C)CS(=O)(=O)C(C)(C)C(N)=N3)c2)n1 [Example 298] = 6.97
COc1cnc(C(=O)Nc2ccc(F)c([C@]3(CF)CS(=O)(=O)C(C)(C)C(N)=N3)c2)c(OC)n1 [Example 155] = 8.37

The recorded pIC50 for entry CC1(C)C(N)=N[C@](C)(c2cc(Oc3ncccc3C(F)(F)F)ccc2F)CS1(=O)=O [Example 278] equals 6.47

The recorded pIC50 for entry CC1(C)C(N)=N[C@](C)(c2cc(Nc3nccc4cc(Cl)cnc34)ccc2F)[C@@H](F)S1(=O)=O [Example 168] equals 9.04

###

Each entry below carries its recorded IC50.
# Assayed target: Cathepsin D (Cat D) (Homo sapiens, UniProt P07339)
# Construct: Recombinant Cat D was expressed in CHO cells; made in house; host or cells: CHO cells
# Sequence (P07339 65-412, species assumed): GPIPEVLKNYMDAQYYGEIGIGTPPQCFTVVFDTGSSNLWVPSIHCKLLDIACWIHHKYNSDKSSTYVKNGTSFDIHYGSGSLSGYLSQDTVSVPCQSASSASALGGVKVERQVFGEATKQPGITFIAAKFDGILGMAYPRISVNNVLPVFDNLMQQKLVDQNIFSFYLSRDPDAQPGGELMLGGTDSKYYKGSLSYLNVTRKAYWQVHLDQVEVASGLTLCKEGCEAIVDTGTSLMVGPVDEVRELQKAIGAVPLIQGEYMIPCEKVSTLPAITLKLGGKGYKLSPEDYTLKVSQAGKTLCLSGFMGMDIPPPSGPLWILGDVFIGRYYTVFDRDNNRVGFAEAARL
# Method description: In vitro enzymatic Cathepsin D (Cat D) FRET assay
# Type: biochemical
# Test context: read-out: CatD IC50
Record the value in µM, omitting the unit from your answer.

The recorded IC50 for entry `CC1(C)C(N)=N[C@](C)(c2cc(Oc3ncccc3F)ccc2F)CS1(=O)=O` equals 153

The recorded IC50 for entry `C[C@@]1(c2cc(N)cnc2F)CS(=O)(=O)C2(CCC2)C(N)=N1` equals 104

The recorded IC50 for entry `CC1(C)C(N)=N[C@](C)(c2cc(NC(=O)c3ccc(Cl)cc3)ccc2F)CS1(=O)=O` equals 317

###

Each entry below carries its recorded pIC50.
# Assayed target: Cathepsin D (Cat D) (Homo sapiens)
# Construct: Recombinant Cat D was expressed in CHO cells; made in house; host or cells: CHO cells
# Method description: In vitro enzymatic Cathepsin D (Cat D) FRET assay
# Type: biochemical
# Test context: read-out: CatD IC50
Just the number, please; pIC50 means minus log10 of the concentration in mol/L.

Illustrative cases are given below, each with its answer.
CC1(C)C(N)=N[C@](C)(c2cc(Oc3ncccc3C#N)ccc2F)CS1(=O)=O = 3.66
CC1(C)C(N)=N[C@](C)(c2cc(Oc3ccc(C#N)cn3)ccc2F)CS1(=O)=O = 3.64
CC1(C)C(N)=N[C@](C)(c2cc(Nc3nccc4cc(Cl)cnc34)cc(F)c2F)CS1(=O)=O (single isomer, unassigned) [Example 70] = 3.79
COc1cnc(C(=O)Nc2cc(C3(C)CS(=O)(=O)C(C)(C)C(N)=N3)c(F)cn2)cn1 (stereo not drawn) = 3.48
CC1(C)C(N)=N[C@](C)(c2cc(Nc3ncc(CO)c4cc(Cl)cnc34)ccc2F)CS1(=O)=O = 4.19

The recorded pIC50 for entry `CC1(C)C(N)=N[C@](C)(c2cc(Oc3cc(-c4ccncc4)ccn3)ccc2F)CS1(=O)=O` equals 3.08

The recorded pIC50 for entry `Cc1cccnc1Oc1ccc(F)c([C@]2(C)CS(=O)(=O)C(C)(C)C(N)=N2)c1` equals 3.26

The recorded pIC50 for entry `Cc1cc(OC(F)F)cnc1C(=O)Nc1ccc(F)c([C@@]2(CF)CS(=O)(=O)C3(CCC3)C(N)=N2)c1` equals 3.29

The recorded pIC50 for entry COc1cnc(C(=O)Nc2ccc(F)c([C@@]3(C)N=C(N)C(C)(C)S(=O)(=O)C3F)c2)c(Cl)c1 (stereo partly drawn) equals 3.27

The recorded pIC50 for entry `CC1(C)C(N)=N[C@](C)(c2cc(Oc3nccc(C#N)c3Cl)ccc2F)CS1(=O)=O` equals 3.53

The recorded pIC50 for entry `Cc1cc(Cl)cnc1C(=O)Nc1ccc(F)c([C@]2(CF)CS(=O)(=O)C3(CCC3)C(N)=N2)c1` equals 3.62

The recorded pIC50 for entry `CC1(C)C(N)=N[C@](C)(c2cc(Oc3ncccc3C(F)(F)F)ccc2F)CS1(=O)=O` equals 3.83

The recorded pIC50 for entry `Cc1cc(OC(F)F)cnc1C(=O)Nc1ccc(F)c([C@]2(C)CS(=O)(=O)C3(CCC3)C(N)=N2)c1` equals 4.17

###

# Assayed target: Beta Secretase enzyme (BACE1) (Homo sapiens)
# Method description: In vitro enzymatic BACE FRET assay
# Type: biochemical
# Test context: read-out: BACE1 FRET assay IC50
Each entry below carries its recorded pIC50.
Just the number, please; pIC50 means minus log10 of the concentration in mol/L.

Illustrative cases are given below, each with its answer.
CC1(c2cc(NC(=O)c3ccc(Cl)cn3)cc(F)c2F)CS(=O)(=O)C(C)(C)C(N)=N1 (stereo not drawn) = 8.57
CCc1cccc(Oc2ccc(F)c([C@]3(C)CS(=O)(=O)C(C)(C)C(N)=N3)c2)c1 = 5.84

The recorded pIC50 for entry `CCc1cc(Oc2ccc(F)c([C@]3(C)CS(=O)(=O)C(C)(C)C(N)=N3)c2)ccc1Cl` equals 5.81

###

Each entry below carries its recorded pIC50.
# Assayed target: Beta Secretase enzyme (BACE1) (Homo sapiens, UniProt P56817)
# Method description: In vitro enzymatic BACE FRET assay
# Assay type: biochemical
# Test context: average IC50, enzyme assay; read-out: BACE1 FRET assay IC50
Just the number, please; pIC50 means minus log10 of the concentration in mol/L.

Illustrative cases are given below, each with its answer.
CC1(C)C(N)=N[C@](C)(c2cc(Oc3ncc(Cl)cc3Cl)ccc2F)CS1(=O)=O [Example 299] = 6.76
COc1cnc2c(Nc3ccc(F)c([C@]4(CF)CS(=O)(=O)C5(CCC5)C(N)=N4)c3)ncnc2c1 [Example 242] = 8.83
CC1(C)C(N)=N[C@](C)(c2cc(Oc3cc(-c4ccncc4)ccn3)ccc2F)CS1(=O)=O [Example 290] = 6.48

The recorded pIC50 for entry NC1=N[C@](CF)(c2cc(Nc3nccc4cc(Cl)cnc34)ccc2F)CS(=O)(=O)C12CCC2 [Example 245] equals 9.25

###

Each entry below carries its recorded IC50.
# Assayed target: Cathepsin D (Cat D) (Homo sapiens)
# Construct: Recombinant Cat D was expressed in CHO cells; made in house; host or cells: CHO cells
# Method description: In vitro enzymatic Cathepsin D (Cat D) FRET assay
# Assay type: biochemical
# Test context: read-out: CatD IC50
Record the value in µM, omitting the unit from your answer.

Illustrative cases are given below, each with its answer.
Cc1cc(Cl)cnc1C(=O)Nc1ccc(F)c([C@]2(C)CS(=O)(=O)C(C)(C)C(N)=N2)c1 = 263
CC1(C)C(N)=N[C@](C)(c2cc(Oc3ncccc3Cl)ccc2F)CS1(=O)=O = 207
C=Cc1cc(Cl)cnc1C(=O)Nc1ccc(F)c([C@]2(CF)CS(=O)(=O)C(C)(C)C(N)=N2)c1 = 194

IC50 of `Cc1cc(OC(F)F)cnc1C(=O)Nc1ccc(F)c([C@]2(C)CS(=O)(=O)[C@@](C)(F)C(N)=N2)c1` , assay on Cathepsin D (Cat D) (Homo sapiens), is 387

IC50 of `Cc1cnc(C(=O)Nc2ccc(F)c([C@]3(CF)CS(=O)(=O)C(C)(C)C(N)=N3)c2)c(C)c1` , assay on Cathepsin D (Cat D) (Homo sapiens), is 636

IC50 of `CC1(C)C(N)=N[C@](C)(c2cc(Oc3ncc(C(N)=O)cc3F)ccc2F)CS1(=O)=O` , assay on Cathepsin D (Cat D) (Homo sapiens), is 717
